measured-on: human sodium channels Nav 1.8 (Homo sapiens)
Sequence (Q9Y5Y9 whole entry): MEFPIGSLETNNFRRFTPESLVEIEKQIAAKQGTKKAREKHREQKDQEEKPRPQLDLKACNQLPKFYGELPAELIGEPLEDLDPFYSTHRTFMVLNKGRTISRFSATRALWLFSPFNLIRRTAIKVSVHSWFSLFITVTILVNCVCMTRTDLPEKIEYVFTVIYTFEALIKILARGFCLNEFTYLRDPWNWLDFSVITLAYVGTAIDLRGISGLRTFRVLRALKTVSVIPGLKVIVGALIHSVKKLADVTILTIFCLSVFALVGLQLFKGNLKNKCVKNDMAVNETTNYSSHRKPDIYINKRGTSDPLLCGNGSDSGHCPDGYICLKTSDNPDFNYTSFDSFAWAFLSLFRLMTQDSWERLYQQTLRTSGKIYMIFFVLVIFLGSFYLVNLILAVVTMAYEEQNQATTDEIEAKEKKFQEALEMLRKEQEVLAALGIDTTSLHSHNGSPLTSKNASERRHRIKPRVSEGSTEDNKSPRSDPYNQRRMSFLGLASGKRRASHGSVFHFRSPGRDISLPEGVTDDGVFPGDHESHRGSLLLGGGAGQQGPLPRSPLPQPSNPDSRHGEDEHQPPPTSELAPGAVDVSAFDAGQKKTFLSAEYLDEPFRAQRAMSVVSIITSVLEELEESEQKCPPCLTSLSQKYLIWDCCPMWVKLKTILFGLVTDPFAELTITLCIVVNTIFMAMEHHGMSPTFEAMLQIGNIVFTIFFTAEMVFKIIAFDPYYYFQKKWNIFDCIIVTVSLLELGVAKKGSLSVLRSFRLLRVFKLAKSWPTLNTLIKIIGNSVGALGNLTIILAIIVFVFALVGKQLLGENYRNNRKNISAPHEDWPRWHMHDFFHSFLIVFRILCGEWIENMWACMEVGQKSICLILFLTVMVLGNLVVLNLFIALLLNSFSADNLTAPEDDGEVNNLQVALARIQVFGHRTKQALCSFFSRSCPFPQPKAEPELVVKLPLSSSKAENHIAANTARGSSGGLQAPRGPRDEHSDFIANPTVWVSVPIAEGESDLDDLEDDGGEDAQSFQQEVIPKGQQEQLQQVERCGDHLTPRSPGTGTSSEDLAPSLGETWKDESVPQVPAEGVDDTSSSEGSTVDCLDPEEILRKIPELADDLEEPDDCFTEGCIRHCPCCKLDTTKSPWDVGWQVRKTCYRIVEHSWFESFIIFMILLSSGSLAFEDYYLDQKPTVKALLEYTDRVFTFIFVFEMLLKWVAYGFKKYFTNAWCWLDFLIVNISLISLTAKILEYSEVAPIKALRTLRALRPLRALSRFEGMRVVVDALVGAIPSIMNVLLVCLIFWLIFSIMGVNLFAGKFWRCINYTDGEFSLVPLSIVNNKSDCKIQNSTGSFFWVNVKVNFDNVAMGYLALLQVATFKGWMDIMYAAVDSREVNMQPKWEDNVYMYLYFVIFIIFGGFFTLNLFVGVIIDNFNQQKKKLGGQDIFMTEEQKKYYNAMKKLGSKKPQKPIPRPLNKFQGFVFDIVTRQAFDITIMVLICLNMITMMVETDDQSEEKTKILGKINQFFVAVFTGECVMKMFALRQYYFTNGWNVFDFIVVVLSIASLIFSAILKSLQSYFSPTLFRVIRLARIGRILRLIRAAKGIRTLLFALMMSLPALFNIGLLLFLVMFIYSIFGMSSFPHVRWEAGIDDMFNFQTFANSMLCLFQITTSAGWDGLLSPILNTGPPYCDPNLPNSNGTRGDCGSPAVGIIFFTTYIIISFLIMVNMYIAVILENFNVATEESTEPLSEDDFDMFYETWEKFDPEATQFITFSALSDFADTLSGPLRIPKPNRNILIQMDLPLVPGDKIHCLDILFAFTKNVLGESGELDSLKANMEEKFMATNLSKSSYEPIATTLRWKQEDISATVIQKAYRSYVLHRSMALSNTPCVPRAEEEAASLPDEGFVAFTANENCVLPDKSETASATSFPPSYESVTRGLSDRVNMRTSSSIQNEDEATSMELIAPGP
method-description: Automated whole-cell voltage-clamp (ScreenPatch 384P) sodium current block, Nav 1.8
study-conditions: CHO cells stably expressing human Nav 1.8; holding -100 mV, inactivation step -40 mV for 8 seconds, test step 10 mV (TP1A); exposure at least five minutes, room temperature; mean where tested in two or more assays; read-out: Nav1.8 IC50

| molecule | IC50 |
| --- | --- |
| CCOc1ccc(-c2ccnc(C(=O)NCCc3cc(OC)cnc3F)c2)cn1 [compound 114] | > 1 µM |
| CCOc1ccc(-c2cncc(C(=O)Nc3cc4c(OC)cccc4[nH]3)n2)cn1 [compound 73] | > 1 µM |
| CCOc1ccc(-c2cncc(C(=O)NCCc3cc(OC)cc(OC)c3)n2)c(C)n1 [compound 31] | > 1 µM |
| CCOc1ccc(-c2cncc(C(=O)Nc3nc4c(OC)ccc(F)c4n3C)n2)cn1 [compound 66] | > 1 µM |
| COc1cnc(F)c(CCNC(=O)c2cncc(-c3ccc(OC)nc3)n2)c1 [compound 53] | < 0.5 µM |
| CCOc1ccc(-c2cncc(C(=O)Nc3cc4c(OC)cccc4[nH]3)n2)cc1 [compound 60] | < 0.5 µM |
| COc1cc(CCNC(=O)c2cncc(-c3ccc(OC(C)C)nc3)n2)cc(OC)c1 [compound 28] | < 0.5 µM |
| CCOc1cc(C)c(-c2cncc(C(=O)NCCc3cc(OC)cc(OC)c3)n2)cn1 [compound 30] | > 1 µM |
| [2H]C([2H])([2H])Oc1ccc(-c2cncc(C(=O)NC[C@@H](O)c3cc(OC([2H])([2H])[2H])cc(OC([2H])([2H])[2H])c3)n2)cc1 [compound 99] | 0.5 to 1 µM |
| CCOc1ccc(-c2cncc(C(=O)NCCc3cc(OC)cc(OC)c3)n2)c(F)c1 [compound 3] | < 0.5 µM |
| CCOc1ccc(-c2cncc(C(=O)Nc3cc4c(OC)ccc(F)c4[nH]3)n2)cc1 [compound 77] | > 1 µM |
| CCOc1ccc(-c2cncc(C(=O)NCCc3cc(OC)cnc3F)c2)cc1 [compound 102] | > 1 µM |
| CCOc1ccc(-c2cncc(C(=O)NCc3cnc4ccc(OC)cn34)n2)cn1 [compound 86] | > 1 µM |
| CCOc1ccc(-c2cncc(C(=O)NCCc3ccccc3F)n2)cc1 [compound 6] | < 0.5 µM |
| CCOc1ccc(-c2cncc(C(=O)NCCc3cc(C(C)O)ccc3F)n2)cn1 (stereo not shown) [compound 43] | < 0.5 µM |
| CCOc1ccc(-c2cncc(C(=O)NCCc3cc(OC)cc(C(C)O)c3)n2)cc1 (stereo not shown) [compound 12] | < 0.5 µM |
| CCOc1ccc(-c2cncc(C(=O)Nc3nc4c(F)ncc(OC)c4o3)n2)cn1 [compound 67] | > 1 µM |
| COc1ccc(-c2cncc(C(=O)NCCc3cc(OC)cc(OC)c3)n2)cc1 [compound 49] | > 1 µM |
| COc1cnc(F)c(CCNC(=O)c2cncc(-c3ccc(C(C)O)cc3)n2)c1 (stereo not shown) [compound 59] | > 1 µM |
| COc1cnc(F)c(CCNC(=O)c2cncc(-c3ccc(C(C)(C)O)cc3)n2)c1 [compound 56] | > 1 µM |
| CCOc1ccc(-c2cncc(C(=O)NCCc3cccc(C(C)O)c3)n2)cn1 (stereo not shown) [compound 41] | > 1 µM |
| CCOc1ccc(-c2cncc(C(=O)Nc3cc4c(OC)ccc(F)c4[nH]3)n2)cn1 [compound 74] | < 0.5 µM |
